# Growth Rate annotations
System: HEK-293T
Assay method text: Incucyte cell viability with HEK293T; note: unitless GR value; below 1 slowed growth and below 0 cell loss
Assay type: toxicity, cell-based
Stated conditions: human, 24 h, 10 µM, compound concentration 10 uM, replicate number 2
Observation type: Growth Rate

[[record]]
compound = "Cn1nccc1-c1ccc(Sc2cccc(C3(C(N)=O)CCOCC3)c2)cc1 [PF-4191834]"
tested_system = "HEK-293T"
reported_result = 0.15

[[record]]
compound = "Nc1ncnc2c1c(COc1cccc(Cl)c1)nn2C1CCOCC1"
tested_system = "HEK-293T"
reported_result = 0.37

[[record]]
compound = "CN(C)c1cc2c(Nc3ccc4c(cnn4Cc4ccccc4)c3)ncnc2cn1 [GW282974X]"
tested_system = "HEK-293T"
reported_result = 0.61

[[record]]
compound = "C=CC(=O)Nc1cccc(C(=O)Nc2ccc(NC(=O)c3cccc(-c4ccn[nH]4)n3)cc2)c1"
tested_system = "HEK-293T"
reported_result = 0.55

[[record]]
compound = "CC[C@@H](Nc1c(C#N)c(-c2ccc(-c3cccc(C)c3F)cc2)nc2cnccc12)C(=O)O [BAY-091]"
tested_system = "HEK-293T"
reported_result = 0.88


* * *

System: HEK-293T
Assay method text: Incucyte cell viability with HEK293T; note: unitless GR value; below 1 slowed growth and below 0 cell loss
Format: toxicity, cell-based
Stated conditions: human, 18 h, 10 µM, compound concentration 10 uM, replicate number 2
Observation type: Growth Rate

[[record]]
compound = "CC(C)(C)c1ccc(-c2coc3ccc(-c4cn[nH]c4)nc23)cc1"
tested_system = "HEK-293T"
reported_result = 0.95

[[record]]
compound = "COc1cc(C(C)C)c(Oc2cnc(NC(CO)CO)nc2N)cc1I"
tested_system = "HEK-293T"
reported_result = 0.82

[[record]]
compound = "C[C@]12CC[C@@H]3c4ccc(O)cc4CC[C@H]3[C@@H]1C[C@H]1OC(=O)C[C@]12O"
tested_system = "HEK-293T"
reported_result = 0.67

[[record]]
compound = "C=CC(=O)Nc1ccc2[nH]c(=O)n(C3CCN(Cc4ccc(-c5ccc6c(c5)NC(=O)CO6)cc4)CC3)c2c1"
tested_system = "HEK-293T"
reported_result = 0.45

[[record]]
compound = "C=CC[C@@H]1/C=C(\\C)C[C@H](C)C[C@H](OC)[C@H]2O[C@@](O)(C(=O)C(=O)N3CCCC[C@H]3C(=O)O[C@H](/C(C)=C/[C@@H]3CC[C@@H](O)[C@H](OC)C3)[C@H](C)[C@@H](O)CC1=O)[C@H](C)C[C@@H]2OC.O"
tested_system = "HEK-293T"
reported_result = 0.82

[[record]]
compound = "COc1ccc(CC[C@@H](OC(=O)[C@@H]2CCCCN2C(=O)[C@H](c2cc(OC)c(OC)c(OC)c2)C2CCCCC2)c2cccc(OCCN3CCOCC3)c2)cc1OC"
tested_system = "HEK-293T"
reported_result = 0.26

[[record]]
compound = "Cc1nsc(Nc2cnc(C(F)(F)F)cn2)c1C(=O)Nc1ccc(O[C@H]2CCCN(CC(F)(F)F)C2)nc1"
tested_system = "HEK-293T"
reported_result = -0.41

[[record]]
compound = "C[C@@H]1CC[C@@]2(OC1)O[C@H]1[C@@H](O)[C@H]3[C@@H]4CC[C@H]5C[C@@H](O[C@@H]6O[C@H](CO)[C@H](O[C@@H]7O[C@H](CO)C(O)[C@H](O[C@@H]8OC[C@@H](O)[C@H](O)[C@H]8O)[C@H]7O[C@@H]7O[C@H](CO)[C@H](O)[C@H](O[C@@H]8O[C@H](CO)[C@@H](O)[C@H](O)[C@H]8O)[C@H]7O)[C@H](O)[C@H]6O)[C@H](O)C[C@]5(C)[C@H]4CC[C@]3(C)[C@H]1[C@@H]2C (stereo partly drawn)"
tested_system = "HEK-293T"
reported_result = 0.68

[[record]]
compound = "CC(C)C(=O)N[C@@H]1CCN(C(=O)Nc2nc3c(s2)-c2nc(-c4ccccc4Cl)ncc2CC3)C1"
tested_system = "HEK-293T"
reported_result = 0.03

[[record]]
compound = "CC(C)(C)OC(=O)CN(Cc1ccc(Cl)cc1)Cc1ccc([N+](=O)[O-])s1"
tested_system = "HEK-293T"
reported_result = 0.75

[[record]]
compound = "c1ccc(C2CCN(c3cnc4c(N5CCOCC5)nccn34)CC2)cc1"
tested_system = "HEK-293T"
reported_result = 0.99

[[record]]
compound = "Cc1c(NC(=O)c2ccc(C(C)(C)C)cc2)cccc1-c1cn(C)c(=O)c(Nc2ccc(C(=O)N3CCOCC3)cc2)n1"
tested_system = "HEK-293T"
reported_result = 0.35

[[record]]
compound = "Cc1nc(-c2ccc(C(F)(F)F)cc2)sc1C(=O)NCc1ccc(OC(C)(C)C(=O)O)cc1"
tested_system = "HEK-293T"
reported_result = 0.92

